# melting point annotations

For orientation, consider the following solved cases.
[
  {
    "molecule": "COC(=O)CCc1ccc(C(c2cc(F)ccc2F)S(=O)(=O)c2ccc(Cl)cc2)nc1 (centres unmarked)",
    "propertyName": "melting point",
    "measurement": "121 to 123 °C"
  },
  {
    "molecule": "CS(=O)(=O)CCCCC(c1cccc(F)c1F)S(=O)(=O)c1ccc(Cl)cc1 (centres unmarked)",
    "propertyName": "melting point",
    "measurement": "141 to 143 °C"
  },
  {
    "molecule": "CCC=CC(c1cc(F)ccc1F)S(=O)(=O)c1ccc(Cl)cc1 (centres unmarked)",
    "propertyName": "melting point",
    "measurement": "99 to 100 °C"
  }
]

Looking up O=S(=O)(c1ccc(Cl)cc1)C(CCCCO)(CCCCO)c1cc(F)ccc1F , I see its melting point listed as 107 to 108.5 °C

Looking up O=S(=O)(c1ccc(Cl)cc1)C(c1cc(F)ccc1F)C(O)CCCCO (centres unmarked) [Example 235] , I see its melting point listed as 108 to 109 °C

Looking up O=S(=O)(c1ccc(Cl)cc1)C(CCc1ccc(Cl)cc1)c1cc(F)ccc1F (centres unmarked) , I see its melting point listed as 124 to 126 °C

Looking up CC(CCO)C(c1cc(F)ccc1F)S(=O)(=O)c1ccc(Cl)cc1 (single isomer, unassigned) [Example 239] , I see its melting point listed as 65 to 67 °C

Looking up O=S(=O)(c1ccc(Cl)cc1)C1(c2ccccc2CO)CCCCC1 , I see its melting point listed as 148 to 150 °C (dec.)

Looking up O=S(=O)(c1ccc(Cl)cc1)C(c1cc[n+]([O-])cc1)c1cc(F)ccc1F (centres unmarked) , I see its melting point listed as 211 to 212 °C

Looking up Fc1ccc(F)c(C(Sc2ccc(Cl)cc2)c2ccc(C3OCCO3)cn2)c1 (centres unmarked) , I see its melting point listed as 70 to 73 °C

Looking up O=S(=O)(CCO)CCC(c1cc(F)ccc1F)S(=O)(=O)c1ccc(Cl)cc1 (centres unmarked) , I see its melting point listed as 111 to 113 °C

Looking up Cc1ccccc1CCC(c1cc(F)ccc1F)S(=O)(=O)c1ccc(Cl)cc1 (centres unmarked) , I see its melting point listed as 105 to 106 °C

Looking up O=S(=O)(c1ccc(Cl)cc1)C(CCN1CCCCC1)c1cc(F)ccc1F (centres unmarked) , I see its melting point listed as 106 to 107 °C

Looking up CS(=O)(=O)CCCCC(c1ccc(F)c(F)c1)S(=O)(=O)c1ccc(Cl)cc1 (centres unmarked) , I see its melting point listed as 122 to 124 °C

Looking up O=S(=O)(/C(=C/c1ccccc1)c1cc(F)ccc1F)c1ccc(Cl)cc1 , I see its melting point listed as 144.5 to 145 °C

Looking up CS(=O)(=O)CCCCC(c1c(F)cccc1F)S(=O)(=O)c1ccc(Cl)cc1 (centres unmarked) , I see its melting point listed as 118 to 119 °C

Looking up O=C(CCCC(c1cc(F)ccc1F)S(=O)(=O)c1ccc(Cl)cc1)N1CCCC1 (centres unmarked) , I see its melting point listed as 125 to 126 °C
